- TEST_PROTOCOL: Body and organ weights of cynomolgus monkeys (Example 45)
- Assay type: in vivo
- MEASUREMENT_CONTEXT: day 43; escalating dose regimen
- Description: Groups, each consisting of two male and three female monkeys, were injected subcutaneously with ISIS 416838, ISIS 416850, ISIS 416858, ISIS 416864, or ISIS 417002 in escalating doses. […] Body weights were measured weekly. […]
READOUT: body weights

INSERT INTO results (substance, readout, result) VALUES
  ('ISIS 417002: MOE gapmer, nucleobases 1275 to 1318 of SEQ ID NO: 1 (Table 8) (antisense GGTGCACAGTTTCTGGCAGG; MOE gapmer, wing and gap sizes not given here)', 'body weights', '2630 g'),
  ('ISIS 416838: MOE gapmer, nucleobases 1018 to 1042 of SEQ ID NO: 1 (Table 6) (antisense GCAACCGGGATGATGAGTGC; MOE gapmer, wing and gap sizes not given here)', 'body weights', '2700 g'),
  ('ISIS 416864: MOE gapmer, nucleobases 1275 to 1318 of SEQ ID NO: 1 (Table 8) (antisense GGCAGCGGACGGCATTGGTG; MOE gapmer, wing and gap sizes not given here)', 'body weights', '3355 g'),
  ('ISIS 416850: MOE gapmer, nucleobases 1275 to 1318 of SEQ ID NO: 1 (Table 8) (antisense TGCACAGTTTCTGGCAGGCC; MOE gapmer, wing and gap sizes not given here)', 'body weights', '2544 g'),
  ('ISIS 416858: MOE gapmer, nucleobases 1275 to 1318 of SEQ ID NO: 1 (Table 8) (antisense ACGGCATTGGTGCACAGTTT; MOE gapmer, wing and gap sizes not given here)', 'body weights', '2607 g');

----------
- TEST_PROTOCOL: Hematology assays in cynomolgus monkeys (Example 46)
- Format: in vivo
- MEASUREMENT_CONTEXT: Day 55
Strand notation (5' to 3'): a small letter for the sugar, then the base; units joined by * are phosphorothioate-linked, units joined directly phosphodiester-linked; [ ] holds rarer units or linkages, { } end groups; capitals alone tell only the bases. e = 2'-O-(2-methoxyethyl) (MOE); [5mC] = 5-methylcytosine; d = 2'-deoxy (DNA)
READOUT: WBC count

INSERT INTO assay_data (substance, result) VALUES
  ('ISIS 449708: 3-8-3, 4-8-4, 2-10-2, 3-10-3 or 4-10-4 MOE microwalk gapmer (Table 46) (antisense eA*e[5mC]*eA*dG*dT*dT*dT*d[5mC]*dT*dG*dG*e[5mC]*eA*eG)', '10000 µL⁻¹'),
  ('ISIS 416858: MOE gapmer, nucleobases 1275 to 1318 of SEQ ID NO: 1 (Table 8) (antisense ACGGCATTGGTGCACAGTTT; MOE gapmer, wing and gap sizes not given here)', '9000 µL⁻¹');

----------
- System: Factor 11 protein
- TEST_PROTOCOL: Factor 11 protein in monkey plasma by sandwich ELISA (Example 45)
- Assay type: in vivo, cynomolgus monkeys
- MEASUREMENT_CONTEXT: day 50; escalating dose regimen; plasma ELISA
READOUT: Inhibition of Factor 11 protein relative to the PBS control (%)

INSERT INTO measurements (substance, readout_number) VALUES
  ('ISIS 417002: MOE gapmer, nucleobases 1275 to 1318 of SEQ ID NO: 1 (Table 8) (antisense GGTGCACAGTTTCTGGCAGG; MOE gapmer, wing and gap sizes not given here)', 13),
  ('ISIS 416858: MOE gapmer, nucleobases 1275 to 1318 of SEQ ID NO: 1 (Table 8) (antisense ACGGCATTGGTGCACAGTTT; MOE gapmer, wing and gap sizes not given here)', 49);

----------
- TEST_PROTOCOL: Hematology assays in cynomolgus monkeys (Example 45)
- Format: in vivo
- MEASUREMENT_CONTEXT: day −14; escalating dose regimen
READOUT: hemoglobin (g/dL)

INSERT INTO assay_data (substance, readout_number) VALUES
  ('ISIS 416850: MOE gapmer, nucleobases 1275 to 1318 of SEQ ID NO: 1 (Table 8) (antisense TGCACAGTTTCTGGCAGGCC; MOE gapmer, wing and gap sizes not given here)', 12.4),
  ('ISIS 416858: MOE gapmer, nucleobases 1275 to 1318 of SEQ ID NO: 1 (Table 8) (antisense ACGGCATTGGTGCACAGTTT; MOE gapmer, wing and gap sizes not given here)', 13.2);

----------
- TEST_PROTOCOL: Tolerability in CD1 mice: kidney function (Example 43)
- Format: in vivo
- MEASUREMENT_CONTEXT: 50 mg/kg s.c. twice per week for 6 weeks, plasma
Strand notation (5' to 3'): a small letter for the sugar, then the base; units joined by * are phosphorothioate-linked, units joined directly phosphodiester-linked; [ ] holds rarer units or linkages, { } end groups; capitals alone tell only the bases. e = 2'-O-(2-methoxyethyl) (MOE); [5mC] = 5-methylcytosine; d = 2'-deoxy (DNA)
READOUT: BUN (mg/dL)

INSERT INTO measurements (substance, readout_number) VALUES
  ('ISIS 449708: 3-8-3, 4-8-4, 2-10-2, 3-10-3 or 4-10-4 MOE microwalk gapmer (Table 46) (antisense eA*e[5mC]*eA*dG*dT*dT*dT*d[5mC]*dT*dG*dG*e[5mC]*eA*eG)', 28),
  ('ISIS 449711: 3-8-3, 4-8-4, 2-10-2, 3-10-3 or 4-10-4 MOE microwalk gapmer (Table 46) (antisense eA*e[5mC]*dA*dG*dT*dT*dT*d[5mC]*dT*dG*dG*d[5mC]*eA*eG)', 26),
  ('ISIS 449710: 3-8-3, 4-8-4, 2-10-2, 3-10-3 or 4-10-4 MOE microwalk gapmer (Table 46) (antisense e[5mC]*eA*e[5mC]*dA*dG*dT*dT*dT*d[5mC]*dT*dG*dG*d[5mC]*eA*eG*eG)', 29);

----------
- MEASUREMENT_CONTEXT: mouse, in vivo, sc, 50 mg/kg
e = 2'-O-(2-methoxyethyl) (MOE); d = 2'-deoxy (DNA)
READOUT: Bilirubin (mg/dL)

INSERT INTO measurements (substance, display_unit, readout_number) VALUES
  ('ISIS 416866: MOE gapmer, nucleobases 1275 to 1318 of SEQ ID NO: 1 (Table 8) (antisense CTGGCAGCGGACGGCATTGG; MOE gapmer, wing and gap sizes not given here)', 'mg/dL', 0.29),
  ('ISIS 416857: MOE gapmer, nucleobases 1275 to 1318 of SEQ ID NO: 1 (Table 8) (antisense CGGCATTGGTGCACAGTTTC; MOE gapmer, wing and gap sizes not given here)', 'mg/dL', 0.22),
  ('ISIS 416863: MOE gapmer, nucleobases 1275 to 1318 of SEQ ID NO: 1 (Table 8) (antisense CAGCGGACGGCATTGGTGCA; MOE gapmer, wing and gap sizes not given here)', 'mg/dL', 0.24),
  ('ISIS 416862: MOE gapmer, nucleobases 1275 to 1318 of SEQ ID NO: 1 (Table 8) (antisense AGCGGACGGCATTGGTGCAC; MOE gapmer, wing and gap sizes not given here)', 'mg/dL', 0.36),
  ('ISIS 412223: 5-10-5 MOE gapmer ACAGTTTCTGGCAGGCCTCG (sugars from the 5'' end e5 d10 e5, backbone and methylation of C not given here)', 'mg/dL', 0.20),
  ('ISIS 416860: MOE gapmer, nucleobases 1275 to 1318 of SEQ ID NO: 1 (Table 8) (antisense CGGACGGCATTGGTGCACAG; MOE gapmer, wing and gap sizes not given here)', 'mg/dL', 0.23),
  ('ISIS 416848: MOE gapmer, nucleobases 1275 to 1318 of SEQ ID NO: 1 (Table 8) (antisense CACAGTTTCTGGCAGGCCTC; MOE gapmer, wing and gap sizes not given here)', 'mg/dL', 0.19),
  ('ISIS 416861: MOE gapmer, nucleobases 1275 to 1318 of SEQ ID NO: 1 (Table 8) (antisense GCGGACGGCATTGGTGCACA; MOE gapmer, wing and gap sizes not given here)', 'mg/dL', 0.27),
  ('ISIS 413482: 5-10-5 MOE gapmer GGACGGCATTGGTGCACAGT (sugars from the 5'' end e5 d10 e5, backbone and methylation of C not given here)', 'mg/dL', 0.24);

----------
- TEST_PROTOCOL: Hematology assays in cynomolgus monkeys (Example 46)
- Assay type: in vivo
- MEASUREMENT_CONTEXT: Day 31
- Description: Groups, each consisting of two male and two female monkeys, were injected subcutaneously with 25 mg/kg of ISIS 416850, ISIS 449709, ISIS 445522, ISIS 449710, ISIS 449707, ISIS 449711, ISIS 449708, 416858, and ISIS 445531. […] Body weights were taken 14 days and 7 days before the start of treatment and were then measured weekly throughout the treatment period. […]
Strand notation (5' to 3'): a small letter for the sugar, then the base; units joined by * are phosphorothioate-linked, units joined directly phosphodiester-linked; [ ] holds rarer units or linkages, { } end groups; capitals alone tell only the bases. e = 2'-O-(2-methoxyethyl) (MOE); [5mC] = 5-methylcytosine; d = 2'-deoxy (DNA)
# platelet count annotations
READOUT: platelet count

INSERT INTO assay_data (substance, readout, result) VALUES
  ('ISIS 416850: MOE gapmer, nucleobases 1275 to 1318 of SEQ ID NO: 1 (Table 8) (antisense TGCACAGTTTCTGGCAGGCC; MOE gapmer, wing and gap sizes not given here)', 'platelet count', '507 ×100/μL'),
  ('ISIS 416858: MOE gapmer, nucleobases 1275 to 1318 of SEQ ID NO: 1 (Table 8) (antisense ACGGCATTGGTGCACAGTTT; MOE gapmer, wing and gap sizes not given here)', 'platelet count', '289 ×100/μL'),
  ('ISIS 449707: 3-8-3, 4-8-4, 2-10-2, 3-10-3 or 4-10-4 MOE microwalk gapmer (Table 46) (antisense e[5mC]*eA*e[5mC]*eA*dG*dT*dT*dT*d[5mC]*dT*dG*dG*e[5mC]*eA*eG*eG)', 'platelet count', '408 ×100/μL'),
  ('ISIS 449710: 3-8-3, 4-8-4, 2-10-2, 3-10-3 or 4-10-4 MOE microwalk gapmer (Table 46) (antisense e[5mC]*eA*e[5mC]*dA*dG*dT*dT*dT*d[5mC]*dT*dG*dG*d[5mC]*eA*eG*eG)', 'platelet count', '422 ×100/μL'),
  ('ISIS 449709: 3-8-3, 4-8-4, 2-10-2, 3-10-3 or 4-10-4 MOE microwalk gapmer (Table 46) (antisense eG*e[5mC]*eA*e[5mC]*dA*dG*dT*dT*dT*d[5mC]*dT*dG*dG*d[5mC]*eA*eG*eG*e[5mC])', 'platelet count', '471 ×100/μL'),
  ('ISIS 445522: 5-8-5 or 6-8-6 MOE microwalk gapmer (Table 44) (antisense eG*e[5mC]*eA*e[5mC]*eA*dG*dT*dT*dT*d[5mC]*dT*dG*dG*e[5mC]*eA*eG*eG*e[5mC])', 'platelet count', '425 ×100/μL'),
  ('ISIS 449711: 3-8-3, 4-8-4, 2-10-2, 3-10-3 or 4-10-4 MOE microwalk gapmer (Table 46) (antisense eA*e[5mC]*dA*dG*dT*dT*dT*d[5mC]*dT*dG*dG*d[5mC]*eA*eG)', 'platelet count', '309 ×100/μL'),
  ('ISIS 449708: 3-8-3, 4-8-4, 2-10-2, 3-10-3 or 4-10-4 MOE microwalk gapmer (Table 46) (antisense eA*e[5mC]*eA*dG*dT*dT*dT*d[5mC]*dT*dG*dG*e[5mC]*eA*eG)', 'platelet count', '378 ×100/μL'),
  ('ISIS 445531: 5-8-5 or 6-8-6 MOE microwalk gapmer (Table 44) (antisense eG*eG*e[5mC]*eA*eT*dT*dG*dG*dT*dG*d[5mC]*dA*d[5mC]*eA*eG*eT*eT*eT)', 'platelet count', '376 ×100/μL');
